Recorded Kd, one value per entry.
Target Or System: human TYK2 (JH2domain-pseudokinase) (Homo sapiens (Human))
Sequence (P29597 556-888): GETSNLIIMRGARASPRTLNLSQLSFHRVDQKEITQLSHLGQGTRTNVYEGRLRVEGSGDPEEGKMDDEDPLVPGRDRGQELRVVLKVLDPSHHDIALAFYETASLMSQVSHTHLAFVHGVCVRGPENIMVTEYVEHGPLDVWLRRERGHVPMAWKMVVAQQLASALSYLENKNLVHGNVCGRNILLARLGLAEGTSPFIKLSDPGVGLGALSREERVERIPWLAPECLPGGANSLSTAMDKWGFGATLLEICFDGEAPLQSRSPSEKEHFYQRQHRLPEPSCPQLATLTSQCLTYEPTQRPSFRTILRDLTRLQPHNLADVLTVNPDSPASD
Method Notes: TYK2 JH2 Domain Binding Assay (KINOMEscan)

Completed entries (count: 2):
CNc1cc(Nc2cccc3ocnc23)nc2c(C(=O)N[C@H]3CC[C@@H]3O)cnn12 ... < 0.2 nM
CNc1cc(Nc2cccn(C3CCC4(CC3)OCCO4)c2=O)nc2c(C(=O)N[C@@H]3C[C@@H]3F)cnn12 ... < 0.2 nM

We next turn to a different compound, shown below.
Which Kd value belongs to CO[C@H]1C[C@H](Oc2ncc(Cl)cc2Nc2cc(N)n3ncc(C(N)=O)c3n2)C1 ?
1 to 10 nM
